tested on: ^125I-BMQ-metabolizing CYP isoenzymes (pooled MLMs); experiment: Inhibition of ^125I-BMQ metabolism by specific CYP inhibitors and mequitazine in pooled MLMs; settings: mouse, pooled mouse liver microsomes, pH 7.4, probe ^125I-BMQ
The entries below come with measured inhibition at 15 min, 10 µM values attached.
Numbers only here, please. The scale is %.

{"compound": "Fc1ccc([C@@H]2CCNC[C@H]2COc2ccc3c(c2)OCO3)cc1", "inhibition at 15 min, 10 µM, %": 42}

Form field - read-out: inhibition at 15 min, 10 µM; system: ^125I-BMQ-metabolizing CYP isoenzymes (pooled MLMs); submitted item: c1ccc2c(c1)Sc1ccccc1N2CC1CN2CCC1CC2 (racemic)
94

Record `C=C[C@H]1C[N@@]2CC[C@H]1C[C@@H]2[C@@H](O)c1ccnc2ccc(OC)cc12` : what is its inhibition at 15 min, 10 µM with ^125I-BMQ-metabolizing CYP isoenzymes (pooled MLMs)?
80
